All figures here come from the supplement of paper PMC7125110.

B1: glmS ribozyme (parent)
chain: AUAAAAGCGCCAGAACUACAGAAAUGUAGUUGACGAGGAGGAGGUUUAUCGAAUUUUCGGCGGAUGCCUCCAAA

Variants of: B1
Assay: self-cleavage kobs at 40 uM GlcN6P; higher = faster cleavage; RNA array
Conditions: with glucosamine-6-phosphate
This sample holds only a part of the variants without activity.
In this section we review reported self-cleavage kobs at 40 uM GlcN6P values for a set of variants.

Recorded self-cleavage kobs at 40 uM GlcN6P, per entry:
- monomer-sequence: "AUAAAAGCGCCAGGACUACAGAAAUGUAGUUGAUGAGGAGGAGGUUUAUCGAAUUUUCGGCGGAUGCGUCCAAA"
  self-cleavage kobs at 40 uM GlcN6P: "0.000349 s⁻¹"
- monomer-sequence: "AUAAAUGCGCCAGAACUACAGAAAUGUAGCUGACGAGGAGGAGGUUUAUCGAAUUCUCGGCGGAUGCCUCCAAA"
  self-cleavage kobs at 40 uM GlcN6P: "< 1e-05 s⁻¹"
- monomer-sequence: "AUAAAAGCGCCAGAACUACAGAAAUGUAGUUGACCAGGAGGAGGUUUACCGAAUUUUCGGCGGAUGCCUCCAAA"
  self-cleavage kobs at 40 uM GlcN6P: "< 1e-05 s⁻¹"

## Input Endpoint output: self-cleavage kobs at 40 uM GlcN6P of AUAAAAGGGCCAGAACUACAGAAAUGUAGUUGACGAGGAGGAGGUUUAUCGAAUUUUCGGCGUAUGCCUCCAAA . Value?
## Output < 1e-05 s⁻¹

## Input Endpoint output: self-cleavage kobs at 40 uM GlcN6P of AUAAAAGCGCCAGAACUACAGAAAUGUAGUUGACUAGGAGGAGGUUUAUCGAAUUUUCGGCCGAUGCCUCCAAA . Value?
## Output < 1e-05 s⁻¹

## Input Endpoint output: self-cleavage kobs at 40 uM GlcN6P of AUAAAUGCGCGAGAACUACAGAAAUGUAGUUGACGAGGAGGAGGUGUAUCGAAUUUUCGGCGGAUGCAUCCAAA . Value?
## Output < 1e-05 s⁻¹
